- procedureSummary: in vitro
- experimentalSetup: human
endpointName: pIC50
The read-out pIC50 is expressed as -log10 of concentration in moles per litre.

Incoming: What value of pIC50 has been recorded for this entry: CC1=C(C)C(=O)O[C@@H]([C@@H](C)[C@H]2CC[C@H]3[C@@H]4C[C@H]5O[C@]56[C@@H](O)C=CC(=O)[C@]6(CO)[C@H]4CC[C@]23C)C1 [Withalongolide B 5, withalongolide B]
Outgoing: 6.42

Incoming: What pIC50 value was documented for this compound, CC1=C(CO)C(=O)O[C@@H]([C@@H](C)[C@H]2CC[C@H]3[C@@H]4C[C@H]5O[C@]56[C@@H](O)C=CC(=O)[C@]6(C)[C@H]4CC[C@]23C)C1 [Withaferin A 6, withaferin A] ?
Outgoing: 6.49
